Selectivity Assay, cell viability values for the molecules below.
tested on: normal nf2^flox2/flox2 Schwann cells; test: Selectivity assay: cell viability of normal Schwann cells; settings: 10 uM; one assay with mouse nf2^flox2/flox2 Schwann cells at P2
Where a name gives a salt, the structure may show the parent alone.

- MOLECULE: "CC(C)(Sc1ccc(CCN(CCCCC2CCCCC2)C(=O)NC2CCCCC2)cc1)C(=O)O [GW7647]"
  MEASURED ENDPOINT: "Selectivity Assay, cell viability"
  OBSERVED VALUE: "32 % of DMSO Control"
- MOLECULE: "O=C1Nc2cc(Br)ccc2C1C1Nc2ccccc2C1NO (centres unmarked) [BIO, (2′Z,3′E)-6-Bromoindirubin-3′-oxime]"
  MEASURED ENDPOINT: "Selectivity Assay, cell viability"
  OBSERVED VALUE: "31 % of DMSO Control"
- MOLECULE: "O=C1NC(=O)/C(=C/c2ccc3nccnc3c2)S1 [AS605240]"
  MEASURED ENDPOINT: "Selectivity Assay, cell viability"
  OBSERVED VALUE: "78 % of DMSO Control"
- MOLECULE: "OCCN1CCN(CCCN2c3ccccc3Sc3ccc(C(F)(F)F)cc32)CC1 [Fluphenazine dihydrochloride]"
  MEASURED ENDPOINT: "Selectivity Assay, cell viability"
  OBSERVED VALUE: "43 % of DMSO Control"
- MOLECULE: "O=C1Nc2ccc(I)cc2C1=Cc1cc(Br)c(O)c(Br)c1 [GW5074]"
  MEASURED ENDPOINT: "Selectivity Assay, cell viability"
  OBSERVED VALUE: "31 % of DMSO Control"
- MOLECULE: "COc1ccc(Br)cc1S(=O)(=O)NC(=O)/C=C/c1ccccc1Cc1ccc2ccccc2c1 [L-798106]"
  MEASURED ENDPOINT: "Selectivity Assay, cell viability"
  OBSERVED VALUE: "33 % of DMSO Control"
- MOLECULE: "CCn1cnc2c(Nc3cccc(Cl)c3)nc(N[C@@H]3CCCC[C@@H]3N)nc21 (relative stereo) [CGP-74514A hydrochloride]"
  MEASURED ENDPOINT: "Selectivity Assay, cell viability"
  OBSERVED VALUE: "33 % of DMSO Control"

Query: # lookup: Selectivity Assay, cell viability of O=C(CCCN1CCC(O)(c2ccc(Cl)cc2)CC1)c1ccc(F)cc1 [Haloperidol]
Result: 78 % of DMSO Control
